assayMethodText: gradient 5% acetonitrile 3 min, to 50% in 2 min, to 85% in 15 min, held 3 min, 100 µL/min
experimentalSetup: column: Zorbax Extend-C18 2.1 x 50 mm; eluents: water / acetonitrile, 0.1% formic acid
Listed next: entries and their corresponding RP-LC retention time.
# value in s; strip the unit string

| compound | unitSpec | numericResult |
| --- | --- | --- |
| CCOc1ccc(C(=O)N2CCN(c3cc(-c4cccs4)[nH]n3)CC2)cc1 | s | 812 |

Give the measured RP-LC retention time of "CCN1c2ccc(F)cc2C(=O)NC12CCN(C(=O)c1cccc(F)c1)CC2" .
791

Give the measured RP-LC retention time of O=C1COc2ccc(S(=O)(=O)N3CCC(C(=O)NC4CCCc5ccccc54)CC3)cc2N1 (stereo not drawn) .
814
